Property: self-cleavage; scope: individual variants
B1: CPEB3 Ribozyme (parent)
chain: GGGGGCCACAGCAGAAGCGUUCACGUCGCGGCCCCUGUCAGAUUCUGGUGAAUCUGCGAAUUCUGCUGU

# Variants of: B1
# experiment-notes: self-cleavage, relative activity (ratio to wild type); higher = more cleavage; co-transcriptional
Please give only the number in your answer, with no unit.

Solved cases below.
{"mutation-annotation": "C12A A15G", "measured": 0.514}
{"mutation-annotation": "U43C U46G", "measured": 0.97}
{"mutation-annotation": "A15G C33U", "measured": 0.999}
{"mutation-annotation": "C24U G65U", "measured": 0.352}
{"mutation-annotation": "C35A A59G", "measured": 0.34}
{"mutation-annotation": "A51G U62A", "measured": 0.98}

Proceed to the following item.
For the variant G11C G14C , what self-cleavage is on record? 0.0758
